# TARGET: Metabotropic glutamate receptor 4 (Homo sapiens, UniProt Q14833)
# Sequence (Q14833 whole entry): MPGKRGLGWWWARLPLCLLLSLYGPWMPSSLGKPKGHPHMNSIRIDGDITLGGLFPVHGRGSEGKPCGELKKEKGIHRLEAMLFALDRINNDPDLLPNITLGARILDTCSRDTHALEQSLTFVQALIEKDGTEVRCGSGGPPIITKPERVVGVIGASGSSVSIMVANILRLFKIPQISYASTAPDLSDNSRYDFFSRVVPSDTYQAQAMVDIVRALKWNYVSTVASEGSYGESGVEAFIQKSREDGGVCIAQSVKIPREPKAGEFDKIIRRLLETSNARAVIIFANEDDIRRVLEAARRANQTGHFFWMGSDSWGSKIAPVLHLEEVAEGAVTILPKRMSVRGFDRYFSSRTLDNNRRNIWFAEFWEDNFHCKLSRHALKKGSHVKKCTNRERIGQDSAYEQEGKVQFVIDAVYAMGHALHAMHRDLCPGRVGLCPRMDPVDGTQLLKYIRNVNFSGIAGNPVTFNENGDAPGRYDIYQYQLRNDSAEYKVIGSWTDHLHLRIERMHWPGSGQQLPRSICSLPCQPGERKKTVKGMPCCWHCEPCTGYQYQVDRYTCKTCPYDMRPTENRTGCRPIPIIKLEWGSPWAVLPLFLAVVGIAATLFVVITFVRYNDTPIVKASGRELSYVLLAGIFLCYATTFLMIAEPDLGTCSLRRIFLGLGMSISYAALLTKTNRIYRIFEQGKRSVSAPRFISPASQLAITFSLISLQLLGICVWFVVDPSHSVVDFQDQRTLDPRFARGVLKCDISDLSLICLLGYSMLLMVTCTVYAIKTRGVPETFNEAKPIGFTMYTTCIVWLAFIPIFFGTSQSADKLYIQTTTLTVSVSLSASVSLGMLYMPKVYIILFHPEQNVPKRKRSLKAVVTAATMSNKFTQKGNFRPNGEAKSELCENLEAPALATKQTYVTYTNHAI
# PROCEDURE TEXT: Positive allosteric modulation of human mGlu4 receptor assessed as increase in glutamate-induced calcium mobilization at 30 uM relative to PHCCC
# Format: functional
REPORTED ENDPOINT: %max (%)
One number for each entry, in %.

Provide each entry's %max from the list below.
1. Cc1nc(NC(=O)c2ccccn2)sc1S(=O)(=O)Cc1ccc(F)cc1F
2. Cc1cccc(S(=O)(=O)n2ccc(NC(=O)c3ccccn3)c2)c1

Result:
93.5
84.8

Query: Which %max value belongs to O=C(Nc1ccn(S(=O)(=O)C(F)c2ccccc2F)c1)c1ccccn1 (stereo not drawn) ?
Result: 71

====

# TARGET: Metabotropic glutamate receptor 4 (Homo sapiens, UniProt Q14833)
# PROCEDURE TEXT: Positive allosteric modulation of human mGlu4 receptor assessed as increase in glutamate-induced calcium mobilization at 30 uM relative to PHCCC
# Type: functional
// classify: if (%max < 90%) TRUE else FALSE

For orientation, consider the following solved cases.
SMILES ENTRY	ASSIGNED CLASS
O=C(Nc1ncc(S(=O)(=O)Cc2ccccc2Cl)s1)c1ccccn1	TRUE
Cc1ccc(S(=O)(=O)n2cc(NC(=O)c3ccccn3)cn2)cc1C	FALSE
Cc1nc(NC(=O)c2ccccn2)sc1S(=O)(=O)Cc1ccc(Cl)cc1F	FALSE
O=C(Nc1ccn(S(=O)(=O)c2ccc(Cl)cc2)c1)c1ccccn1	FALSE
O=C(Nc1ccn(S(=O)(=O)Cc2ccccc2F)c1)c1ccccn1	FALSE

Query: Hello, I'm reviewing records and need to know if %max of `CCc1nc(NC(=O)c2ccccn2)sc1S(=O)(=O)Cc1ccc(Cl)cc1F` is below 90%. Could you check?
Result: FALSE

Query: Below 90% on %max? Entry `O=C(Nc1ccn(S(=O)(=O)Cc2ccc(Cl)cc2)c1)c1ccccn1`
Result: FALSE

Query: Determine if `O=C(Nc1ccn(S(=O)(=O)c2ccc(C(F)(F)F)cc2)c1)c1ccccn1` shows %max strictly lower than 90%.
Result: TRUE
